System: MDA-N
protocol_notes: NCI tumour cell line growth inhibition, 48 h
Activity calls are given as the source filed them. Cut-off read from the data, not from the text of the source: active = GI50 up to about 1.1 µM and inactive = higher.
Possible outcomes: T (active), F (inactive)

[
  {
    "molecule": "O=C(c1ccco1)N(Cc1ccco1)C(=S)Nc1ccccc1",
    "assigned_category": "F"
  },
  {
    "molecule": "CC(C)(C)OC(=O)NC(CCC(=O)OCc1ccccc1)C(=O)NCCCO (stereo not given)",
    "assigned_category": "F"
  },
  {
    "molecule": "N#C/C(=C\\c1cc(Cl)cc(Cl)c1)c1ccccn1",
    "assigned_category": "F"
  },
  {
    "molecule": "COc1c2c(c(OC)c3c1c(=O)c1ccccc1n3C)OCO2",
    "assigned_category": "F"
  },
  {
    "molecule": "CC(C)=CCC[C@@H](C)/C=C/C=C(\\C)C(=O)CC[C@@H]1CC[N@+]2(C)CCCC[C@H]12",
    "assigned_category": "F"
  },
  {
    "molecule": "CN1C2CCC1CC(C)(O)C2 (stereo not given)",
    "assigned_category": "F"
  },
  {
    "molecule": "Cc1ccc(C2=C(C#N)C(=O)N3CCN=C3S2)cc1",
    "assigned_category": "F"
  },
  {
    "molecule": "Nc1nc(=O)n(C2OC(CO)C(O)C2O)c2ncc(-c3ccc(-c4ccccc4)cc3)nc12 (stereo not given)",
    "assigned_category": "F"
  },
  {
    "molecule": "Cc1ccc(O)c(-c2csc(NCN3CCN(CNc4nc(-c5cc(C)ccc5O)cs4)CC3)n2)c1",
    "assigned_category": "F"
  },
  {
    "molecule": "CCO/N=C\\c1ccc2oc(-c3ccccc3)cc(=O)c2c1",
    "assigned_category": "T"
  },
  {
    "molecule": "CCCN(C(=O)c1ccccc1)C(C#N)c1ccc(C(C#N)N(CCC)C(=O)c2ccccc2)cc1 (stereo not given)",
    "assigned_category": "F"
  },
  {
    "molecule": "CC[C@H]1C[C@@H](O)[C@@H]2[C@H](O)[C@H](O)CN2C1",
    "assigned_category": "F"
  },
  {
    "molecule": "O=[N+]([O-])c1cccc2nc3ccccc3c(NCCCN3CCOCC3)c12",
    "assigned_category": "T"
  },
  {
    "molecule": "NC(=O)CC(N)c1nnn[nH]1 (stereo not given)",
    "assigned_category": "F"
  },
  {
    "molecule": "NC(Cc1ccc(O)cn1)C(=O)NC(C(=O)O)c1ccccc1 (stereo not given)",
    "assigned_category": "F"
  },
  {
    "molecule": "O=C(O)c1cc2c(cc1CC(Cc1ccccc1)C(=O)O)CCC2 (stereo not given)",
    "assigned_category": "F"
  },
  {
    "molecule": "Cc1cccc2sc(NC(=O)NS(=O)(=O)n3cnc4ccccc43)nc12",
    "assigned_category": "F"
  },
  {
    "molecule": "CC1=NN(C(=O)CC(=O)Nc2cccc(C)c2)C(=O)C1/N=N\\c1ccc(S(=O)(=O)c2ccc(/N=N/C3C(=O)N(C(=O)CC(=O)Nc4cccc(C)c4)N=C3C)cc2)cc1 (stereo not given)",
    "assigned_category": "F"
  },
  {
    "molecule": "O=C1CCC2(O)C3Cc4ccc(Oc5nnnn5-c5ccccc5)c5c4C2(CCN3CC2CC2)C1O5 (stereo not given)",
    "assigned_category": "F"
  },
  {
    "molecule": "COc1cc(CNc2nc3cc(C(F)(F)F)ccc3nc2C(=O)O)cc(OC)c1OC",
    "assigned_category": "F"
  },
  {
    "molecule": "CN(C)c1ccc(/C=C2\\N=C(c3ccccc3)N(c3ccc4c(c3)Sc3cc(N5C(=O)/C(=C/c6ccc(N(C)C)cc6)N=C5c5ccccc5)ccc3N4)C2=O)cc1",
    "assigned_category": "F"
  },
  {
    "molecule": "COC(=O)C1(Cc2ccccc2)Cc2cc3c(cc2C1)CCC3",
    "assigned_category": "F"
  },
  {
    "molecule": "CC(C)=C1C2CC3(C)CCC2(C)CCC13.CC1=CCC2C3(C)CCC2(C(C)C)C1C3 (stereo not given)",
    "assigned_category": "F"
  },
  {
    "molecule": "COc1cc2c(cc1O)NC(=S)[C@@H]1CCCN1C2=O",
    "assigned_category": "F"
  },
  {
    "molecule": "C[n+]1cccc2ccc3cccnc3c21",
    "assigned_category": "F"
  },
  {
    "molecule": "CC1=C(/C=C/C(C)=C/C=C/C(C)=C/C(=O)Nc2ccc(O)cc2)C(C)(C)CCC1 [FENRETINIDE]",
    "assigned_category": "F"
  },
  {
    "molecule": "CC(O)(CNS(=O)(=O)c1ccccc1)c1ccccc1 (stereo not given)",
    "assigned_category": "F"
  },
  {
    "molecule": "O=C1Nc2ccccc2/C1=C\\c1c(-c2ccccc2)nc2n1CCS2",
    "assigned_category": "F"
  },
  {
    "molecule": "COc1cc2nc3c(=C(C#N)C#N)c4ccccc4n3c(=O)c2cc1OC",
    "assigned_category": "F"
  },
  {
    "molecule": "COc1cc2c(cc1OC)C(=O)/C(=C/c1cc(C)cc(C)c1)C2",
    "assigned_category": "T"
  },
  {
    "molecule": "O=C1/C(=C/c2ccc([N+](=O)[O-])cc2)C(=O)N(c2ccccc2)C1c1ccccc1 (stereo not given)",
    "assigned_category": "F"
  },
  {
    "molecule": "O=C1c2ccccc2-c2cc3ccccc3c(=O)n21",
    "assigned_category": "F"
  },
  {
    "molecule": "C=C1CC(Cn2ccc(=O)[nH]c2=O)(c2ccc(OC)cc2)OC1=O (stereo not given)",
    "assigned_category": "F"
  },
  {
    "molecule": "CN(C)CC1CCC(CN(C)C)C(=O)C1=O (stereo not given)",
    "assigned_category": "F"
  },
  {
    "molecule": "O=c1c2cc(I)ccc2nc(SCc2nnco2)n1Cc1ccccc1",
    "assigned_category": "F"
  }
]
